- Test system: MCF7 breast
- assay_summary: NCI tumour cell line growth inhibition, 48 h
Where a SMILES comes first, the peptide text is derived from it. [ ]: non-standard residue; d: D form. Phe(F5) = N[CH](Cc1c(F)c(F)c(F)c(F)c1F)C(=O)O
Here the recorded TGI is given for each entry.

compound	TGI
CCOC(=O)/C(C)=C\[C@@]1(C)O[C@@H](C)[C@@](C)(OC(C)=O)[C@@H]1OC(C)=O	> 100 µM
COC(=O)C(CC(C)C)NC(=O)C(Cc1cnc[nH]1)NC(=O)CNC(=O)C(NC(=O)C(C)NC(=O)C(Cc1c[nH]c2ccccc12)NC(=O)C(CCC(=O)O)NC(=O)C(N)Cc1c(F)c(F)c(F)c(F)c1F)C(C)C (stereo unspecified) (H-[Phe(F5)]EWAVGHL-OMe; configuration not given here)	> 12.5 µM
O=C1C(Cl)=C(N/N=c2/[nH][nH]/c(=N/NC3=C(Cl)C(=O)c4ccccc4C3=O)c3ccccc23)C(=O)c2ccccc21	38.4 µM
O=C(O)c1c[nH]c2c(Sc3ccccc3)nccc2c1=O	> 100 µM
NC(=O)C(Nc1c(Cl)cccc1Cl)c1cc2cc(Br)ccc2nc1Cl (stereo unspecified)	> 100 µM
O=C1c2cc3c(cc2CC12Cc1cc4c(cc1C2=O)CCCC4)CCCC3	> 100 µM
N#CC1(C#N)C2CCCCC23OC(=N)C1(C#N)C(c1ccco1)O3 (stereo unspecified)	54 µM
COc1cccc(C2=C(c3cn(C)c4ccccc34)C(=O)NC2=O)c1	> 25 µM
C=C1C(=O)C([Si](C)(C)C)=C2C=C(C)C3(CC3)C12C (stereo unspecified)	70.4 µM
COc1ccc(/C=C(\Cl)c2ccc(OC)c(OC)c2)cc1OC	> 100 µM
CCOC(=O)Cc1c[nH]c(=S)[nH]c1=O	> 100 µM

* * *

// TGI lookup, one value per entry
- System: SF-268 CNS
- assay_summary: NCI tumour cell line growth inhibition, 48 h
*1 amine or outer side, *2 acyl side, *3 side chain or, on linkers, in order; H or OH if unused. Where a SMILES comes first, the peptide text is derived from it. Bridges are numbered along the chain shown (N, C = ends). [ ]: non-standard residue; d: D form. The star is where a group is joined. X38 = CC[C@H](C)[C@@H](N[*:1])[C@@H](O)CC(=O)[*:2]; NMeY = CN[C@@H](Cc1ccc(O)cc1)C(=O)O; dNMeL = CN[C@H](CC(C)C)C(=O)O; Hiv = CC(C)[C@H](O)C(=O)O; Pyruvoyl = CC(=O)C(=O)*
property_name: TGI

compound	property_name	reported
CCOC(=O)C=C1CCN(C(=O)c2ccccc2)CC1	TGI	> 100 µM
CC[C@H](C)[C@H]1NC(=O)[C@@H](NC(=O)[C@@H](CC(C)C)N(C)C(=O)[C@@H]2CCCN2C(=O)C(C)=O)[C@@H](C)OC(=O)[C@H](Cc2ccc(OC)cc2)N(C)C(=O)[C@@H]2CCCN2C(=O)[C@H](CC(C)C)NC(=O)[C@H](C(C)C)OC(=O)C[C@@H]1O (Pyruvoyl-P[dNMeL]T[X38][Hiv]LP[NMeY](Me); ester 3-C)	TGI	0.0983 µM
COc1cccc(C2=C(c3cn(C)c4ccccc34)C(=O)NC2=O)c1	TGI	> 25 µM
Cc1occc1C(=S)Nc1ccc(Cl)c(C(=O)OCC(F)(F)F)c1	TGI	42.3 µM
CC12CCC(=O)C=C1CCC1C2CCC2(C)C(C(=O)Cn3cnc4c(=S)nc[nH]c43)CCC12 (centres undefined)	TGI	> 100 µM
COc1ccc(Br)c2c1CC(C(=O)O)CC2 (centres undefined)	TGI	> 100 µM
CCCCc1ccc(Nc2nc(Cl)c3c(ncn3COCCOC(C)=O)n2)cc1	TGI	38.5 µM
CCCN1C(=O)/C(=c2\sc3n(c2=O)C2C(NN=3)N(CC)C(=O)N2CC)c2ccccc21 (centres undefined)	TGI	19 µM
Cc1nc2sc(CCl)nn2c(=O)c1Cl	TGI	33.4 µM
CCOC(C[C@H](O)[C@H]1COC(=S)S1)OCC	TGI	> 100 µM
CC(=O)OCC(=O)[C@@]1(O)CC[C@H]2[C@@H]3CCC4=CC(=O)[C@H](C)C[C@]4(C)[C@H]3[C@@H](O)C[C@@]21C	TGI	> 100 µM
O=C(NCCCCCCNC(=O)c1cccc2ccccc12)c1cccc2ccccc12	TGI	81.9 µM
Cc1nn2c(=O)c([N+](=O)[O-])c(/C=C/c3ccccc3)nc2s1	TGI	> 100 µM
O=S(=O)([O-])[O-].[Fe+2].c1ccc(/C(=N\Nc2ccccn2)c2ccccn2)cc1	TGI	19.3 µM
CC(C)(C(=O)NN)c1ccccc1	TGI	> 100 µM
COC(=O)c1[nH]c(=S)[nH]c(=O)c1-c1ccc(Cl)cc1	TGI	> 50 µM
O=C1CSC2(CC(/C=C/c3ccccc3O)=NN2c2cccc(S(=O)(=O)O)c2)N1c1nc2ccccc2s1 (centres undefined)	TGI	> 100 µM
O=C1C/C(=C/c2ccc(/C=C3/CC(=O)N(c4cccc(Br)c4)C3=O)cc2)C(=O)N1c1cccc(Br)c1	TGI	> 100 µM
O=C(NO)c1ccc([N+](=O)[O-])cc1	TGI	> 100 µM
